Kindly state IC50 for each of the entries shown.
measuredTarget: human NaPi-IIb (Homo sapiens)
Construct: expressed in transfected cells
Sequence (O95436 whole entry): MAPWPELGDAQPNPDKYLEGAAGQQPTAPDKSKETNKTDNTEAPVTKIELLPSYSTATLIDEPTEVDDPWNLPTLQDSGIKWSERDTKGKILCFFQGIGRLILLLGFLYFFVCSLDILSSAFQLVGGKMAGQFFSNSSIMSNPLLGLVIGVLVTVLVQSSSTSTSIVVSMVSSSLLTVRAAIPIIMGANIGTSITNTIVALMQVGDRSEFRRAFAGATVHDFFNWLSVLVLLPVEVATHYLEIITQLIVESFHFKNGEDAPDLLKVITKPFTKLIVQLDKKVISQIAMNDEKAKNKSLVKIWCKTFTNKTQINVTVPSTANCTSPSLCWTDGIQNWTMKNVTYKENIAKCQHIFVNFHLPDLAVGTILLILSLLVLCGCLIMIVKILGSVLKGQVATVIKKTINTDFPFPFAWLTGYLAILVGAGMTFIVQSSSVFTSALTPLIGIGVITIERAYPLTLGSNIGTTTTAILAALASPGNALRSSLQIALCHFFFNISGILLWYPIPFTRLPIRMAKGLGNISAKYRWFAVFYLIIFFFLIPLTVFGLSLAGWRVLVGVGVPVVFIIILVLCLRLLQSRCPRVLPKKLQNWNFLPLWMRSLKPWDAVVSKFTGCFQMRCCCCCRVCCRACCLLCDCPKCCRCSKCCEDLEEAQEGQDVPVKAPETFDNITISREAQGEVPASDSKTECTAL
assayName: Inhibitory effect on 33PO4 uptake into human NaPi-IIb-expressing CHO cells
Assay type: cell-based
assayContext: read-out: IC50
Just the number plus its unit, please.

IN: For the compound "C[C@]12CCCN1N(Cc1cccc(F)c1F)C(=O)C(C(=O)Nc1ccc(Br)c(F)c1F)=C2O" , what IC50 is on record?
OUT: 2.8 µM

IN: Likewise for "CC1(C)CC[C@]2(C)C(O)=C(C(=O)Nc3ccc(C(F)(F)F)cc3-c3ccc(C(F)(F)F)nc3)C(=O)N(Cc3cccc(F)c3F)N12" ?
OUT: 5.6 µM

IN: Likewise for "COCCOCCOCCCCCCCCN1C(=O)C(C(=O)Nc2ccc(C(F)(F)F)cc2-c2cc(C(F)(F)F)ncn2)=C(O)[C@@]2(C)CCCN12" ?
OUT: 24.7 µM

Data credit: patent US9499553B2
